System: Digitaria sanguinalis
PROTOCOL_TEXT: Herbicidal activity against Digitaria sanguinalis (hairy crabgrass) assessed as inhibition of fresh weed plant weight at 93.75 g/ha using pre-emergence treatment protocol
Type: functional

{"SMILES_CODE": "C#CCN1C(=O)COc2cc(F)c(-n3nnc4nn(CC=C)cc4c3=O)cc21", "MEASUREMENT_TARGET": "Digitaria sanguinalis", "inhibition at 93.75 g/ha (%)": 6.1}
{"SMILES_CODE": "C#CCN1C(=O)COc2cc(F)c(N3C(=O)C4=C(CCCC4)C3=O)cc21", "MEASUREMENT_TARGET": "Digitaria sanguinalis", "inhibition at 93.75 g/ha (%)": 100}
{"SMILES_CODE": "C#CCN1C(=O)COc2cc(F)c(-n3nnc4c(cnn4C)c3=O)cc21", "MEASUREMENT_TARGET": "Digitaria sanguinalis", "inhibition at 93.75 g/ha (%)": 26.8}
{"SMILES_CODE": "CCCN1C(=O)COc2cc(F)c(-n3nnc4c(cnn4C)c3=O)cc21", "MEASUREMENT_TARGET": "Digitaria sanguinalis", "inhibition at 93.75 g/ha (%)": 3.9}

---

System: Digitaria sanguinalis
PROTOCOL_TEXT: Herbicidal activity against Digitaria sanguinalis (hairy crabgrass) assessed as inhibition of fresh weed plant weight at 1500 g/ha using pre-emergence treatment protocol
Format: functional
QUANTITY_KIND: inhibition at 1500 g/ha (%)

{"SMILES_CODE": "CCCCOc1cc(-n2nnc3c(cnn3C)c2=O)c(F)cc1Cl", "MEASUREMENT_TARGET": "Digitaria sanguinalis", "QUANTITY_KIND": "inhibition at 1500 g/ha", "OBSERVED_MEASUREMENT": 0}
{"SMILES_CODE": "C#CCN1C(=O)COc2cc(F)c(-n3nnc4c(c(C(F)(F)F)nn4C)c3=O)cc21", "MEASUREMENT_TARGET": "Digitaria sanguinalis", "QUANTITY_KIND": "inhibition at 1500 g/ha", "OBSERVED_MEASUREMENT": 8.3}
{"SMILES_CODE": "C=C(Cl)COc1cc(-n2nnc3c(cnn3C)c2=O)c(F)cc1Cl", "MEASUREMENT_TARGET": "Digitaria sanguinalis", "QUANTITY_KIND": "inhibition at 1500 g/ha", "OBSERVED_MEASUREMENT": 0}
{"SMILES_CODE": "Cn1ncc2c(=O)n(-c3cc(OCC#N)c(Cl)cc3F)nnc21", "MEASUREMENT_TARGET": "Digitaria sanguinalis", "QUANTITY_KIND": "inhibition at 1500 g/ha", "OBSERVED_MEASUREMENT": 2.3}
{"SMILES_CODE": "C=CCN1C(=O)COc2cc(F)c(-n3nnc4nn(CCC)cc4c3=O)cc21", "MEASUREMENT_TARGET": "Digitaria sanguinalis", "QUANTITY_KIND": "inhibition at 1500 g/ha", "OBSERVED_MEASUREMENT": 78.6}

---

System: Echinochloa crus-galli
PROTOCOL_TEXT: Herbicidal activity against Echinochloa crus-galli (barnyard grass) assessed as inhibition of fresh weed plant weight at 375 g/ha using post-emergence treatment protocol
Type: functional
QUANTITY_KIND: inhibition at 375 g/ha (%)

{"SMILES_CODE": "C#CCN1C(=O)COc2cc(F)c(-n3nnc4c(cnn4CCC)c3=O)cc21", "MEASUREMENT_TARGET": "Echinochloa crus-galli", "OBSERVED_MEASUREMENT": 19}
{"SMILES_CODE": "C=CCN1C(=O)COc2cc(F)c(-n3nnc4c(cnn4CC=C)c3=O)cc21", "MEASUREMENT_TARGET": "Echinochloa crus-galli", "OBSERVED_MEASUREMENT": 23.2}
{"SMILES_CODE": "C#CCOc1cc(-n2nnc3nn(CC=C)cc3c2=O)c(F)cc1Cl", "MEASUREMENT_TARGET": "Echinochloa crus-galli", "OBSERVED_MEASUREMENT": 0.5}
{"SMILES_CODE": "C=CCOc1cc(-n2nnc3c(cnn3CC=C)c2=O)c(F)cc1Cl", "MEASUREMENT_TARGET": "Echinochloa crus-galli", "OBSERVED_MEASUREMENT": 18}
{"SMILES_CODE": "C#CCN1C(=O)COc2cc(F)c(-n3nnc4c(cnn4CC=C)c3=O)cc21", "MEASUREMENT_TARGET": "Echinochloa crus-galli", "OBSERVED_MEASUREMENT": 43.5}
